Reference for the values: PubChem BioAssay

assay: FRG1 promoter luciferase signal modulators, primary screen, FRG1 inhibition for FSHD, cell-based, C2C12 myotubes, firefly/Renilla luciferase, luminescence (AID 1084); details: higher = more signal, called active from +8 up or from −8 down
Lab note: anything with z-score at or over 0.5 counts as met; the rest go in not met.

{"compound": "CO[C@H]1O[C@H](CO)[C@@H](OC(=O)Nc2ccc(C(F)(F)F)cc2)[C@H](OC(=O)Nc2ccccc2-c2ccccc2)[C@H]1OC(=O)Nc1ccccc1-c1ccccc1", "assigned category": "met"}
{"compound": "COCCOC(=O)N1C(=O)[C@@]2(c3cc(C#CC4=CCCCC4)ccc31)[C@H](c1ccccc1OCCO)N1[C@H](c3ccccc3)[C@H](c3ccccc3)OC(=O)[C@H]1[C@@H]2C(N)=O", "assigned category": "not met"}
{"compound": "CC(C)C[C@@H]1NC(=O)[C@H]2C[C@@H](C(=O)NCCCCCNC(=O)CS)[C@@H](c3ccc(O)cc3)N2C1=O", "assigned category": "not met"}
{"compound": "CC(C)C[C@@H]1NC(=O)C([C@@H](C)OCc2ccccc2)NC(=O)[C@@]23C(=O)N[C@@H](Cc4ccccc4)C2[C@H](C)[C@@]2(C)O[C@H]2C3/C=C/CC/C=C/CNC1=O (stereo partly drawn)", "assigned category": "met"}
{"compound": "C=CC[C@]1(C(=O)OC)N=C(c2ccc(OCCCO)cc2)O[C@H]1c1ccccc1N=[N+]=[N-]", "assigned category": "met"}
{"compound": "COc1ccc([Si](C)(C)[C@H]2[C@H](CCO)O[C@@]3(C(=O)N(Cc4ccc(N5CCOC5=O)cc4)c4ccccc43)[C@@H]2C)cc1", "assigned category": "not met"}
{"compound": "Cc1ccc(S[C@]2(C(=O)NCCN3CCOCC3)CC(=O)N(C3CCCCC3)[C@@H]2c2ccc(CO)cc2I)cc1", "assigned category": "not met"}
{"compound": "C=CCNC(=O)[C@H]1[C@@H]2C(=O)O[C@@H](c3ccccc3)[C@@H](c3ccccc3)N2[C@@H](c2ccccc2OCCO)[C@]12C(=O)N(C(=O)OCCOC)c1ccccc12", "assigned category": "not met"}
{"compound": "O=C1C2C=CC(C(O)c3cccs3)N(Nc3ccccc3)C2C(=O)N1c1ccccc1 (stereo not drawn)", "assigned category": "not met"}
{"compound": "CCCC[C@@H]1C[C@H]1[C@@H](NC(=O)c1ccc(C(F)(F)F)cc1)c1ccc(C(=O)OC)cc1", "assigned category": "not met"}
{"compound": "Cc1ccc(F)cc1S(=O)(=O)N[C@@H]1CCN(Cc2ccc3c(c2)OCO3)C1", "assigned category": "not met"}

* * *

target: Fibroblast growth factor 2 (Homo sapiens) (UniProt P09038); assay: FGF2 binders on small-molecule microarrays, primary screen, biochemical, small-molecule microarray, 635/667 nm fluorescence (AID 1133); conditions: small-molecule microarray binding, FGF2, fluorescence 635/667; higher = more signal
Sequence (P09038 whole entry, looked up): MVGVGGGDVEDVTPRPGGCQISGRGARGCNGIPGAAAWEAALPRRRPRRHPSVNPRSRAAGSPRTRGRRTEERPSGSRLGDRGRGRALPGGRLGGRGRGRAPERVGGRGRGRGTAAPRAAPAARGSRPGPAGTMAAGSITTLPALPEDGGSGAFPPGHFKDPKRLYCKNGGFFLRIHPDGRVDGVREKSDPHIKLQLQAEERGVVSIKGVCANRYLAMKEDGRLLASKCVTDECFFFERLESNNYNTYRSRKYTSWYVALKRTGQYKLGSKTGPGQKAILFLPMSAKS
Lab note: anything with composite z-score at or over 0.2 counts as 1.0; the rest go in 0.0.

{"smiles repr": "COC(=O)[C@@]1(CCS(=O)(=O)c2ccccc2)N=C(c2ccc(OCCCO)cc2)O[C@H]1c1ccccc1N=[N+]=[N-]", "system": "Fibroblast growth factor 2 (Homo sapiens) (UniProt P09038)", "assigned category": 1.0}
{"smiles repr": "C=CCN1C(=O)[C@]2(O[C@H](CCn3cc([C@H](O)c4ccccc4)nn3)[C@@H]([Si](C)(C)c3ccc(OC)cc3)[C@@H]2C)c2cc(N3C(=O)c4cccc5cccc3c45)ccc21", "system": "Fibroblast growth factor 2 (Homo sapiens) (UniProt P09038)", "assigned category": 0.0}
{"smiles repr": "CO[C@H]1O[C@H](CO)[C@@H](OC(=O)Nc2ccc(C(F)(F)F)cc2)[C@H](OC(=O)Nc2ccccc2-c2ccccc2)[C@@H]1OC(=O)Nc1ccccc1-c1ccccc1", "system": "Fibroblast growth factor 2 (Homo sapiens) (UniProt P09038)", "assigned category": 1.0}
{"smiles repr": "O=C1N(CCS(=O)(=O)c2ccccc2)c2ccccc2[C@@H]2OC(c3ccc(OCCCO)cc3)=N[C@]12CCS(=O)(=O)c1ccccc1", "system": "Fibroblast growth factor 2 (Homo sapiens) (UniProt P09038)", "assigned category": 1.0}
{"smiles repr": "CCCCC(=C=CC[C@@H](O)c1cccc(OCCO)c1)CCO", "system": "Fibroblast growth factor 2 (Homo sapiens) (UniProt P09038)", "assigned category": 0.0}
{"smiles repr": "CCCC=C(CCC)[C@@H](NS(=O)(=O)c1ccc(Cl)cc1)c1ccccc1", "system": "Fibroblast growth factor 2 (Homo sapiens) (UniProt P09038)", "assigned category": 0.0}
{"smiles repr": "COc1ccc([Si](C)(C)[C@@H]2[C@@H](CC(=O)N(CCO)Cc3ccccc3)O[C@]3(C(=O)N(Cc4ccc(N5CCC5=O)cc4)c4ccccc43)[C@H]2C)cc1", "system": "Fibroblast growth factor 2 (Homo sapiens) (UniProt P09038)", "assigned category": 1.0}
